System: A498 complex spheroids with HUVEC/MSC, growth
Assay: Anticancer human tumor A498 cell line growth inhibition [AhR];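 note: seven day exposure starting three days after spheroid seeding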
Conditions: curve of first compound; second compound 10 µM
Source text: Multicellular complex tumor spheroid response to aryl hydrocarbon receptor antagonists in combination with a variety of drugs and investigational agents in selected tumor cell lines […] Compounds. […] If the clinical Cmax for an agent had not been determined, the highest concentration tested was 10 microM (Table 1). […]
The following compounds are listed with their measured IC50 values.
Give the number; nM is assumed, so skip it.

Please review the following examples before continuing.
>  <compound>
CC(C)CC(NC(=O)C(Cc1ccccc1)NC(=O)c1cnccn1)B(O)O (stereo unspecified) + Cc1ccccc1N=Nc1ccc(NC(=O)c2ccnn2C)c(C)c1

>  <unit.abbrev>
nM

>  <IC50>
5.11

$$$$
>  <compound>
CC1COCCN1c1cc(C2(S(C)(=N)=O)CC2)nc(-c2ccnc3[nH]ccc23)n1 (stereo unspecified) + Cc1ccccc1N=Nc1ccc(NC(=O)c2ccnn2C)c(C)c1

>  <unit.abbrev>
nM

>  <IC50>
2030

$$$$

Task: Recorded IC50 for Nc1ccccc1NC(=O)c1ccc(CNC(=O)OCc2cccnc2)cc1 + Cc1ccccc1N=Nc1ccc(NC(=O)c2ccnn2C)c(C)c1 , please?
Output: 1160
